# ligand-binding domain of human PXR (Homo sapiens): pIC50 values follow
# Sequence (O75469 146-433 limits assumed): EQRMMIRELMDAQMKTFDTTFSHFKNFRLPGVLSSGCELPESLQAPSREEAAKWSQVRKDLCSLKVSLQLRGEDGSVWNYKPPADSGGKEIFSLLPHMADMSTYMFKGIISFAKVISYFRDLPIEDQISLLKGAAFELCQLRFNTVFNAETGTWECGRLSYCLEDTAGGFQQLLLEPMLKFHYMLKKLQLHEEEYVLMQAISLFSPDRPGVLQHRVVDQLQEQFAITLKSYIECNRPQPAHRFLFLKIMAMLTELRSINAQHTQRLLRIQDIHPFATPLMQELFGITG
pIC50: −log10 of the molar value.
metric: pIC50

(P) C#CCC(O)(c1ccncc1)c1cc2ccccc2[nH]1 (centres unmarked) [CVK-003]
(Q) C#CCC(O)(c1ccn2ccnc2c1)c1cc2ccccc2n1S(=O)(=O)c1ccccc1 (centres unmarked) [CVK-021]
q: Please indicate which item has the smaller measured pIC50: P versus Q Reply with the label of the item you choose.
a: P
(P: 5.07, Q: 6.04)

====

assayed.target: PXR (Homo sapiens, UniProt O75469)
Sequence (O75469 whole entry): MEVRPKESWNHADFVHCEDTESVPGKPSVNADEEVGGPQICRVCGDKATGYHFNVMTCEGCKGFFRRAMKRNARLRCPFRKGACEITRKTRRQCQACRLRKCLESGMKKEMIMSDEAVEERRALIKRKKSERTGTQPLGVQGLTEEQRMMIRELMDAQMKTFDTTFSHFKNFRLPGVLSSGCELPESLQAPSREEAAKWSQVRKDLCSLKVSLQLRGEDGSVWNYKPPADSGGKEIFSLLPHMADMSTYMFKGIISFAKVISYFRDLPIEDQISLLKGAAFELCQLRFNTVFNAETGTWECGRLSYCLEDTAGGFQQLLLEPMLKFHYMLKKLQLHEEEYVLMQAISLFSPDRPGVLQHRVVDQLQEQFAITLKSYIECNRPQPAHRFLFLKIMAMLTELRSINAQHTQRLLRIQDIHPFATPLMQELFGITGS
experiment: PXR reporter gene assay in LS180 cells transfected with pSG5-hPXR and p3A4-luc
Readings of EC50 for the listed compounds

Some entries whose results are on file:
compound	EC50
C#CCC(O)(c1ccn2ccnc2c1)c1cc2ccccc2n1S(=O)(=O)c1ccccc1 (stereo not shown)	~0.8 µM
O=S(=O)(c1ccccc1)n1c(C(O)c2ccn3ccnc3c2)cc2ccccc21 (stereo not shown)	~0.8 µM
C#CCC(O)(c1ccncc1)c1cc2ccccc2[nH]1 (stereo not shown)	7.5 µM

As a next step, examine the compound that follows.
For the compound O=C(c1ccn2ccnc2c1)c1cc2ccccc2n1S(=O)(=O)c1ccccc1 , the measured EC50 on PXR (Homo sapiens, UniProt O75469) was ~0.8 µM

This collection of values is drawn from paper PMC8646148.
